B1: 2K2A (parent)
chain: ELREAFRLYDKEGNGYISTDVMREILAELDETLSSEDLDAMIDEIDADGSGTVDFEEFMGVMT

Variants of: B1
PROTOCOL: folding stability dG (cDNA display proteolysis); higher = more stable
CONDITION NOTES: PBS, room temperature
Reported folding stability dG maps to class as: b0 (below 1 kcal/mol), b1 (1 kcal/mol to below 2 kcal/mol), b2 (2 kcal/mol or more)

Sample answers from the record:
• I17S = b0
• E36V = b1
• L26C = b0
• T32R = b1
• G13I = b0
• E44M = b2

Challenge: Which folding stability dG category applies to N14S here?
Response given: b1

Challenge: Class label required: T52Y
Response given: b1

Challenge: Returns: class label. Input: E56Q
Response given: b1

Challenge: Category lookup for the variant D54H
Response given: b1

Challenge: Textbook exercise: identify the category of the variant given here, S18D , according to its measured value.
Response given: b0

Challenge: Into which category would you place L38C ?
Response given: b0

Challenge: Field: class (folding stability dG) — entry: G51R
Response given: b1

Challenge: Could you tell me which band A40E belongs to?
Response given: b1

Challenge: Form: Item = L33Y ; Class = ?
Response given: b1

Challenge: Lab log: D43M — assign folding stability dG category
Response given: b2
